B1: Caulobacter ParB omega fusion; a variant is named by its letters at X, in order, B8GW30 (parent)
chain: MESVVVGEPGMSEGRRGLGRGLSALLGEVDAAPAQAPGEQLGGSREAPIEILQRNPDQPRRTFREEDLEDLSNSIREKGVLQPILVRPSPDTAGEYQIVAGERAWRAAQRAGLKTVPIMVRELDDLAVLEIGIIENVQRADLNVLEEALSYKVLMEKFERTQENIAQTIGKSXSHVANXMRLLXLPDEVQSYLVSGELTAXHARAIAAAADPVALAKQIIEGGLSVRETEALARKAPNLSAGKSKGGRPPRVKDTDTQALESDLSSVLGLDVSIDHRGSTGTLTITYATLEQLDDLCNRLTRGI

Variants of: B1
PROCEDURE_TEXT: one-hybrid fitness for binding NBS DNA (the Noc-binding site; scaled: cognate 1, non-cognate 0); higher = stronger binding
CONDITION_CONTEXT: with NBS DNA site
The full ranking holds about 81,000 sequences; the median of “one-hybrid fitness for binding NBS DNA” is about -0.1, and the highest 2% start at about 0.36. The full list was thinned out, with the highest values kept by preference.
MEASUREMENT_LABEL: one-hybrid fitness for binding NBS DNA

A selection of reference data follows.
Sample THKH — what was its one-hybrid fitness for binding NBS DNA?
≤ 0.2

Same question for QLKY please.
0.46

Same question for QQNR please.
0.786

Could you tell me one-hybrid fitness for binding NBS DNA for each of these variants? They are listed below.
1. SPFL
2. CRKR
3. QLHY

1: ≤ 0.2; 2: 0.417; 3: ≤ 0.2

Could you tell me one-hybrid fitness for binding NBS DNA for each of these variants? They are listed below.
1. CRRR
2. QQNH
3. WRNM

1. 0.373
2. 0.355
3. ≤ 0.2

Could you tell me one-hybrid fitness for binding NBS DNA for each of these variants? They are listed below.
1. QQDC
2. QLVY
3. TSRF
4. LKPH
5. PPLD
6. QQND
7. HLQS
8. METY

1: ≤ 0.2; 2: ≤ 0.2; 3: ≤ 0.2; 4: ≤ 0.2; 5: ≤ 0.2; 6: ≤ 0.2; 7: ≤ 0.2; 8: ≤ 0.2

Could you tell me one-hybrid fitness for binding NBS DNA for each of these variants? They are listed below.
1. NYIC
2. HNPS

1: ≤ 0.2; 2: ≤ 0.2

Could you tell me one-hybrid fitness for binding NBS DNA for each of these variants? They are listed below.
1. PLRP
2. APVD

≤ 0.2
≤ 0.2

Sample TVQG — what was its one-hybrid fitness for binding NBS DNA?
≤ 0.2
